Target: AtGID1a (Arabidopsis thaliana, UniProt Q9MAA7)
Sequence (Q9MAA7 1-345): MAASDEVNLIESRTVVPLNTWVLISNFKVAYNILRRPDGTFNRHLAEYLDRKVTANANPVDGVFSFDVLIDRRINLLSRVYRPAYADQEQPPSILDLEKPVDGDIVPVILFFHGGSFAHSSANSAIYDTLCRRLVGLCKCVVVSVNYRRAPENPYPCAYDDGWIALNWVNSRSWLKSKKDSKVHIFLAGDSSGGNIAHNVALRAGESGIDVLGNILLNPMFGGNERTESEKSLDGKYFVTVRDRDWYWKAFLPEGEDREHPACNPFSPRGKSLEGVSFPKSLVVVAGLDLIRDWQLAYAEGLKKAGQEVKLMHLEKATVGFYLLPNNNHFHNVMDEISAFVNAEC
observable: IC50

In: Given the entry CC1C[C@]23C[C@H]1CCC2[C@]12CC[C@H](O)[C@](C)(C(=O)O1)[C@H]2[C@@H]3C(=O)O (stereo partly shown) [H2-GA4, 16,17-dihydro-GA4] , what IC50 was observed with AtGID1a (Arabidopsis thaliana, UniProt Q9MAA7)?
Out: 4 µM
